test system: primary mouse neurons; test: Neuronal toxicity by MAP-2 staining in primary mouse neurons; type: cell-based; details: 48 hr, 0.1 to 10,000 nM; ±SD
PROPERTY_MEASURED: TC50 (µM) Relative MAP-2 Area

| SMILES_NOTATION | PROPERTY_MEASURED | UNIT_SPEC | MEAS_VALUE |
| --- | --- | --- | --- |
| N#Cc1ccc(Nc2nc(N)n(S(=O)(=O)c3cccc4cc(C#N)ccc34)n2)cc1 | TC50 (µM) Relative MAP-2 Area | µM | 1.2 |
| Nc1nc(Nc2ccc(Cl)cc2)nn1S(=O)(=O)c1ccc2ccccc2c1 | TC50 (µM) Relative MAP-2 Area | µM | 34 |
| N#Cc1ccc2c(S(=O)(=O)n3nc(Nc4ccc(C#N)c(C#N)c4)nc3N)cccc2c1 | TC50 (µM) Relative MAP-2 Area | µM | 48 |
| N#C/C=C/c1ccc2c(S(=O)(=O)n3nc(Nc4ccc(C#N)c(Cl)c4)nc3N)cccc2c1 | TC50 (µM) Relative MAP-2 Area | µM | 100 |

The values you see were collected from paper PMC10269403.
